- System: human embryonic lung (HEL) fibroblasts
- ASSAY OVERVIEW: Minimum cytotoxic concentration, HEL cell morphology
- ASSAY SETUP: Table 3 (HSV assays)
ASSAY METRIC: Cytotoxicity MCC

Here's what some known entries look like.
C[C@H](NP(=O)(OCC(CO)CCn1cnc2c(=O)[nH]c(N)nc21)Oc1cccc2ccccc12)C(=O)OCc1ccccc1 (some centres unmarked) : >100 µM
COC(=O)[C@H](C)NP(=O)(OCC(CO)CCn1cnc2c(OC)nc(N)nc21)Oc1cccc2ccccc12 (some centres unmarked) : ≥100 µM
C[C@H](NP(=O)(OCC(CO)OCn1cnc2c(=O)[nH]c(N)nc21)Oc1ccccc1)C(=O)OCc1ccccc1 (some centres unmarked) : >100 µM
CCC(C)(C)COC(=O)[C@H](C)NP(=O)(OCC(CO)CCn1cnc2c(OC)nc(N)nc21)Oc1cccc2ccccc12 (some centres unmarked) : 100 µM
COc1nc(N)nc2c1ncn2CCC(CO)COP(=O)(N[C@@H](C)C(=O)OC1CCCCC1)Oc1cccc2ccccc12 (some centres unmarked) : ≥100 µM
CCC(C)(C)COC(=O)[C@H](C)NP(=O)(OCC(CCn1cnc2c(OC)nc(N)nc21)COP(=O)(N[C@@H](C)C(=O)OCC(C)(C)CC)Oc1cccc2ccccc12)Oc1cccc2ccccc12 (some centres unmarked) : ≥100 µM
C[C@H](NP(=O)(OCC(CO)OCn1cnc2c(=O)[nH]c(N)nc21)Oc1cccc2ccccc12)C(=O)OCc1ccccc1 (some centres unmarked) : >100 µM

Supply Cytotoxicity MCC value. Item: C[C@H](NP(=O)(OCC(CO)CCn1cnc2c(=O)[nH]c(N)nc21)Oc1ccccc1)C(=O)OCc1ccccc1 (some centres unmarked)
>100 µM

----------
Recorded Cytotoxicity MCC, one value per entry.
- Tested on: human embryonic lung (HEL) fibroblasts
- ASSAY OVERVIEW: Minimum cytotoxic concentration, HEL cell morphology
- ASSAY SETUP: Table 4 (HCMV/VZV assays)

Please list Cytotoxicity MCC recorded for the compound CC(C)(NP(=O)(OCC(CO)CCn1cnc2c(=O)[nH]c(N)nc21)Oc1cccc2ccccc12)C(=O)OCc1ccccc1 (stereo not drawn)
>50 µM

Please list Cytotoxicity MCC recorded for the compound C[C@H](NP(=O)(OCC(CO)OCn1cnc2c(=O)[nH]c(N)nc21)Oc1ccccc1)C(=O)OCc1ccccc1 (stereo partly drawn)
>100 µM

Tell us which Cytotoxicity MCC value is on record for COc1nc(N)nc2c1ncn2CCC(COP(=O)(N[C@@H](C)C(=O)OCc1ccccc1)Oc1ccccc1)COP(=O)(N[C@@H](C)C(=O)OCc1ccccc1)Oc1ccccc1 (stereo partly drawn)
>50 µM

For the compound CC(C)(NP(=O)(OCC(CO)OCn1cnc2c(=O)[nH]c(N)nc21)Oc1ccccc1)C(=O)OCc1ccccc1 (stereo not drawn) , give its reported Cytotoxicity MCC.
>50 µM

State its Cytotoxicity MCC for this compound: C[C@H](NP(=O)(OCC(COP(=O)(N[C@@H](C)C(=O)OCc1ccccc1)Oc1cccc2ccccc12)OCn1cnc2c(=O)[nH]c(N)nc21)Oc1cccc2ccccc12)C(=O)OCc1ccccc1 (stereo partly drawn)
>50 µM

Specify measured Cytotoxicity MCC for CCC(C)(C)COC(=O)[C@H](C)NP(=O)(OCC(CO)CCn1cnc2c(OC)nc(N)nc21)Oc1cccc2ccccc12 (stereo partly drawn) .
≥50 µM

Report Cytotoxicity MCC for C[C@H](NP(=O)(OCC(CO)CCn1cnc2c(=O)[nH]c(N)nc21)Oc1ccccc1)C(=O)OCc1ccccc1 (stereo partly drawn)
>50 µM

Query Cytotoxicity MCC for C[C@H](NP(=O)(OCC(CO)CCn1cnc2c(=O)[nH]c(N)nc21)Oc1cccc2ccccc12)C(=O)OCc1ccccc1 (stereo partly drawn)
>50 µM

State, in one line, measured Cytotoxicity MCC of CC(C)(NP(=O)(OCC(CCn1cnc2c(=O)[nH]c(N)nc21)COP(=O)(NC(C)(C)C(=O)OCc1ccccc1)Oc1cccc2ccccc12)Oc1cccc2ccccc12)C(=O)OCc1ccccc1 (stereo not drawn)
>50 µM

For C[C@H](NP(=O)(OCC(CCn1cnc2c(=O)[nH]c(N)nc21)COP(=O)(N[C@@H](C)C(=O)OCc1ccccc1)Oc1cccc2ccccc12)Oc1cccc2ccccc12)C(=O)OCc1ccccc1 (stereo partly drawn) , write its Cytotoxicity MCC.
>50 µM

Entry COc1nc(N)nc2c1ncn2CCC(COP(=O)(N[C@@H](C)C(=O)OCC(C)(C)C)Oc1cccc2ccccc12)COP(=O)(N[C@@H](C)C(=O)OCC(C)(C)C)Oc1cccc2ccccc12 (stereo partly drawn) needs its Cytotoxicity MCC filled in; supply it.
≥20 µM

In one line, give reported Cytotoxicity MCC of the entry C[C@H](NP(=O)(OCC(CO)OCn1cnc2c(=O)[nH]c(N)nc21)Oc1cccc2ccccc12)C(=O)OCc1ccccc1 (stereo partly drawn) .
>100 µM

----------
- Tested on: human embryonic lung (HEL) fibroblasts
- ASSAY OVERVIEW: Minimum cytotoxic concentration, HEL cell morphology
- ASSAY SETUP: Table 3 (HSV assays)
# Cytotoxicity MCC per record follows

Use these answered entries as a reference point.
CCCOC(=O)[C@H](C)NP(=O)(OCC(CO)CCn1cnc2c(OC)nc(N)nc21)Oc1cccc2ccccc12 (stereo partly drawn) [Compound 69] : 100 µM
COc1nc(N)nc2c1ncn2CCC(COP(=O)(N[C@@H](C)C(=O)OCC(C)(C)C)Oc1cccc2ccccc12)COP(=O)(N[C@@H](C)C(=O)OCC(C)(C)C)Oc1cccc2ccccc12 (stereo partly drawn) [Compound 62] : ≥100 µM
C[C@H](NP(=O)(OCC(COP(=O)(N[C@@H](C)C(=O)OCc1ccccc1)Oc1ccccc1)OCn1cnc2c(=O)[nH]c(N)nc21)Oc1ccccc1)C(=O)OCc1ccccc1 (stereo partly drawn) [Compound 17] : >100 µM
CC(C)(NP(=O)(OCC(CO)OCn1cnc2c(=O)[nH]c(N)nc21)Oc1ccccc1)C(=O)OCc1ccccc1 (stereo not drawn) [Compound 20] : >100 µM
CC(C)(NP(=O)(OCC(COP(=O)(NC(C)(C)C(=O)OCc1ccccc1)Oc1cccc2ccccc12)OCn1cnc2c(=O)[nH]c(N)nc21)Oc1cccc2ccccc12)C(=O)OCc1ccccc1 (stereo not drawn) [Compound 21] : >100 µM
CCCOC(=O)[C@H](C)NP(=O)(OCC(CCn1cnc2c(OC)nc(N)nc21)COP(=O)(N[C@@H](C)C(=O)OCCC)Oc1cccc2ccccc12)Oc1cccc2ccccc12 (stereo partly drawn) [Compound 63] : ≥100 µM

Tell us which Cytotoxicity MCC value is on record for CC(C)(NP(=O)(OCC(CCn1cnc2c(=O)[nH]c(N)nc21)COP(=O)(NC(C)(C)C(=O)OCc1ccccc1)Oc1ccccc1)Oc1ccccc1)C(=O)OCc1ccccc1 (stereo not drawn) [Compound 38]
>100 µM

Identify the reported Cytotoxicity MCC for the following entry. CC(C)(NP(=O)(OCC(CCn1cnc2c(=O)[nH]c(N)nc21)COP(=O)(NC(C)(C)C(=O)OCc1ccccc1)Oc1cccc2ccccc12)Oc1cccc2ccccc12)C(=O)OCc1ccccc1 (stereo not drawn) [Compound 40]
100 µM

For the compound CC(C)(NP(=O)(OCC(CO)OCn1cnc2c(=O)[nH]c(N)nc21)Oc1cccc2ccccc12)C(=O)OCc1ccccc1 (stereo not drawn) [Compound 22] , report Cytotoxicity MCC.
>100 µM

Supply recorded Cytotoxicity MCC for CC(C)(NP(=O)(OCC(CO)CCn1cnc2c(=O)[nH]c(N)nc21)Oc1cccc2ccccc12)C(=O)OCc1ccccc1 (stereo not drawn) [Compound 41] here.
>100 µM

For the compound CC(C)(NP(=O)(OCC(CO)CCn1cnc2c(=O)[nH]c(N)nc21)Oc1ccccc1)C(=O)OCc1ccccc1 (stereo not drawn) [Compound 39] , give its reported Cytotoxicity MCC.
>100 µM

Recall and state the measured Cytotoxicity MCC for C[C@H](NP(=O)(OCC(CCn1cnc2c(=O)[nH]c(/N=C/N(C)C)nc21)COP(=O)(N[C@@H](C)C(=O)OCc1ccccc1)Oc1ccccc1)Oc1ccccc1)C(=O)OCc1ccccc1 (stereo partly drawn) [Compound 30] .
>100 µM

----------
- Test system: human embryonic lung (HEL) fibroblasts
- ASSAY OVERVIEW: Minimum cytotoxic concentration, HEL cell morphology
- ASSAY SETUP: Table 4 (HCMV/VZV assays)
ASSAY METRIC: Cytotoxicity MCC

Please review the entries below; each comes with its answer.
CCCOC(=O)[C@H](C)NP(=O)(OCC(CO)CCn1cnc2c(OC)nc(N)nc21)Oc1cccc2ccccc12 (stereo partly drawn) [Compound 69] : ≥50 µM
C[C@H](NP(=O)(OCC(COP(=O)(N[C@@H](C)C(=O)OCc1ccccc1)Oc1ccccc1)OCn1cnc2c(=O)[nH]c(N)nc21)Oc1ccccc1)C(=O)OCc1ccccc1 (stereo partly drawn) [Compound 17] : >100 µM
CC(C)(NP(=O)(OCC(CO)OCn1cnc2c(=O)[nH]c(N)nc21)Oc1cccc2ccccc12)C(=O)OCc1ccccc1 (stereo not drawn) [Compound 22] : >50 µM
COc1nc(N)nc2c1ncn2CCC(CO)COP(=O)(N[C@@H](C)C(=O)OCc1ccccc1)Oc1cccc2ccccc12 (stereo partly drawn) [Compound 67] : >50 µM
CC(C)(NP(=O)(OCC(CO)CCn1cnc2c(=O)[nH]c(N)nc21)Oc1ccccc1)C(=O)OCc1ccccc1 (stereo not drawn) [Compound 39] : >50 µM

With human embryonic lung (HEL) fibroblasts as the test system, provide measured Cytotoxicity MCC for this molecule: CC(C)(NP(=O)(OCC(CCn1cnc2c(=O)[nH]c(N)nc21)COP(=O)(NC(C)(C)C(=O)OCc1ccccc1)Oc1ccccc1)Oc1ccccc1)C(=O)OCc1ccccc1 (stereo not drawn) [Compound 38]
>50 µM

Source: paper PMC5731253
